Recorded pIC50, one value per entry.
Tgt: EZH2 (PRC2 enzyme complex: EZH2, EED, Suz12, RbAp48) (Homo sapiens (Human), UniProt O75530+Q09028+Q15022+Q15910)
Sequence (Q15910 other isoform, or with tags, fused parts or gaps): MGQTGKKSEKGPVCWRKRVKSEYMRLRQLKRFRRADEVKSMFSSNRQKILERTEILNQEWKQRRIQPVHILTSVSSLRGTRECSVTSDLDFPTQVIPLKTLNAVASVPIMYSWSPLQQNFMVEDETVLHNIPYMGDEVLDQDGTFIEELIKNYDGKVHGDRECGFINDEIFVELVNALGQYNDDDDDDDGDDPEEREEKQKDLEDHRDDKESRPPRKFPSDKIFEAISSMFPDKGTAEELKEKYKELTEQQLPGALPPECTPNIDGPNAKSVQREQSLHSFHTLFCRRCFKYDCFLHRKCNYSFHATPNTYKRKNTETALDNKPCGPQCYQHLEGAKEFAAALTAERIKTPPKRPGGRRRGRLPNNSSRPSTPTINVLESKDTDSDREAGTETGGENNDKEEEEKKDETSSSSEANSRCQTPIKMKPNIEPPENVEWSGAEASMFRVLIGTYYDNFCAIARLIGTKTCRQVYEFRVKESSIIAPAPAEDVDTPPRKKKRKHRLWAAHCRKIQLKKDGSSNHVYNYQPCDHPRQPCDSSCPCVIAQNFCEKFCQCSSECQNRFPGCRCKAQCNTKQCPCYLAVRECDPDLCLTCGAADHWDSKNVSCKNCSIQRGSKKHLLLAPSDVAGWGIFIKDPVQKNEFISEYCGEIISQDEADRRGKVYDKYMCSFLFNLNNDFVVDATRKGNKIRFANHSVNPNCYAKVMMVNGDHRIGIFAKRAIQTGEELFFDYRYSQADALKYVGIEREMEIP
Sequence (O75530 whole entry partner): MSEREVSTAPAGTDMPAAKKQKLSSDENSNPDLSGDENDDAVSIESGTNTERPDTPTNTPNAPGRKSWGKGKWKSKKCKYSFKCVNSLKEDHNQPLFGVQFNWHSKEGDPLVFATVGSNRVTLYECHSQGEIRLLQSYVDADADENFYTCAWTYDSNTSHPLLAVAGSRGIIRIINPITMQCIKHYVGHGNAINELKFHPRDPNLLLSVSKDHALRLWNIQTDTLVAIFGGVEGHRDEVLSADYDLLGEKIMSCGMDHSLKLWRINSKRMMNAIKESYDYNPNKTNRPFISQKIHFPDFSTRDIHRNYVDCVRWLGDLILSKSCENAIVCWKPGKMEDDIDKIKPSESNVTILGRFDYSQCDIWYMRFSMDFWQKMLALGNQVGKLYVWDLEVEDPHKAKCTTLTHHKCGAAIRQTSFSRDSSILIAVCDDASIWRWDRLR
Sequence (Q15022 whole entry partner): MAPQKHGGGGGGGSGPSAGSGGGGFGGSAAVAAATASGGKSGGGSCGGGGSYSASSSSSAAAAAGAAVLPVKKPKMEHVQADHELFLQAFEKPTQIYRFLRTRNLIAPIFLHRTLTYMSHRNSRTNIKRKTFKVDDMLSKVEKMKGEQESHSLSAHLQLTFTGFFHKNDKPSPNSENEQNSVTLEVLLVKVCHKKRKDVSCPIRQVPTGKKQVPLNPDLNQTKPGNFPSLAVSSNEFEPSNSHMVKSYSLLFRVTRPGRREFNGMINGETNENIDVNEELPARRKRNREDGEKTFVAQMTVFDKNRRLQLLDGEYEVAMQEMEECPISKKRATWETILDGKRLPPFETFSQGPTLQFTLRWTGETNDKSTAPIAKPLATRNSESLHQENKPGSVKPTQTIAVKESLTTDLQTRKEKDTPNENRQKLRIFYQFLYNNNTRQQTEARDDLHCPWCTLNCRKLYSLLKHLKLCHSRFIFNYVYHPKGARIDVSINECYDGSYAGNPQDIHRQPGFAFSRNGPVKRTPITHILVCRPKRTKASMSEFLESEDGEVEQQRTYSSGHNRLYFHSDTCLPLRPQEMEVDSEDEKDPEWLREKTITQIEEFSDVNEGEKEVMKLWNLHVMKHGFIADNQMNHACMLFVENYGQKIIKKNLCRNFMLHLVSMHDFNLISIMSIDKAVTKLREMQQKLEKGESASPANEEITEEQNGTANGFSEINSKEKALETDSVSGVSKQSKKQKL
Sequence (Q09028 whole entry partner): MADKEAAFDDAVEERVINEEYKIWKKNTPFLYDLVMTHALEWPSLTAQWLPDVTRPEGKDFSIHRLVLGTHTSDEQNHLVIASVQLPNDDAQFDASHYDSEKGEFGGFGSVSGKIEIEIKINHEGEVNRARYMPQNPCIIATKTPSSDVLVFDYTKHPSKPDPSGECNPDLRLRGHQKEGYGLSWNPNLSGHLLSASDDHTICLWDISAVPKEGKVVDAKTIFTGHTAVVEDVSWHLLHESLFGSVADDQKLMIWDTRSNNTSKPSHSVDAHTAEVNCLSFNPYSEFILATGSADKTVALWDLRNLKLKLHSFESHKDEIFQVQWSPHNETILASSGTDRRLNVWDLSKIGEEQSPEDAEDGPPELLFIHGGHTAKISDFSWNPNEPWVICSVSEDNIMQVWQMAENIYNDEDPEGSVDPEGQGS
Assay Explanation: PRC2 enzyme assay on peptide substrates (3H-SAM Flashplate)
pIC50: −log10 of the molar value.

# Compound, Measured Value
data = [
    ("Cc1cc(C)c(CNC(=O)c2c(Cl)c(-c3ccc4c(c3)OCCO4)nc3c2cnn3C(C)C)c(=O)[nH]1 [Compound A-47]", "6.00 to 6.52"),
    ("Cc1cc(C)c(CNC(=O)c2cc(C(C)C)nc3c2cnn3C(C)C)c(=O)[nH]1 [Compound B-109]", "5.52 to 6.00"),
    ("Cc1cc(C)c(CNC(=O)c2cc(-c3cccc(CN(C)CCN4CCCC4)c3)nc3c2cnn3C(C)C)c(=O)[nH]1 [Compound A-41]", "6.00 to 6.52"),
    ("CNCCN(C)Cc1cccc(-c2cc(C(=O)NCc3c(C)cc(C)[nH]c3=O)c3cnn(C(C)C)c3n2)c1 [Compound A-58]", "5.52 to 6.00"),
]

[ask] Name the recorded pIC50 of the compound listed here: Cc1cc(C(C)C)c(CNC(=O)c2cc(C3=CC(C)(C)NC(C)(C)C3)nc3c2cnn3C(C)C)c(=O)[nH]1 [Compound B-148]
[reply] 4.30 to 5.00

[ask] Specify reported pIC50 for the compound shown: Cc1cc(C)n(C)c(=O)c1CNC(=O)c1cc(-c2cccc(CN(C)CCN(C)C)c2)nc2c1cnn2C(C)C [Compound A-74]
[reply] 4.30 to 5.00

[ask] Report pIC50, nothing else, for this compound: Cc1cc(C)c(CNC(=O)c2cc(-c3ccccc3CN)nc3c2cnn3C(C)C)c(=O)[nH]1 [Compound A-68]
[reply] 5.00 to 5.52

[ask] Please report the measured pIC50 for Cc1cc[nH]c(=O)c1CNC(=O)c1cc(-c2ccc3c(c2)OCCO3)nc2c1cnn2C(C)(C)C [Compound A-77]
[reply] 4.30 to 5.00

[ask] Return pIC50 (reported value) for this compound: Cc1cc(C)c(CNC(=O)c2cc(-c3cccc(CNCCCN(C)C)c3)nc3c2cnn3C(C)C)c(=O)[nH]1 [Compound A-125]
[reply] 5.52 to 6.00
